# EXPERIMENTAL TARGET: EGFR (Homo sapiens, UniProt P00533)
# Construct: The intracellular portion of EGFR started at nucleotide 2189 (corresponding to amino acid 667) and ended at the termination codon; made in house; host or cells: Sf9 insect cells (baculovirus)
# Sequence (P00533 669-1210 limits assumed): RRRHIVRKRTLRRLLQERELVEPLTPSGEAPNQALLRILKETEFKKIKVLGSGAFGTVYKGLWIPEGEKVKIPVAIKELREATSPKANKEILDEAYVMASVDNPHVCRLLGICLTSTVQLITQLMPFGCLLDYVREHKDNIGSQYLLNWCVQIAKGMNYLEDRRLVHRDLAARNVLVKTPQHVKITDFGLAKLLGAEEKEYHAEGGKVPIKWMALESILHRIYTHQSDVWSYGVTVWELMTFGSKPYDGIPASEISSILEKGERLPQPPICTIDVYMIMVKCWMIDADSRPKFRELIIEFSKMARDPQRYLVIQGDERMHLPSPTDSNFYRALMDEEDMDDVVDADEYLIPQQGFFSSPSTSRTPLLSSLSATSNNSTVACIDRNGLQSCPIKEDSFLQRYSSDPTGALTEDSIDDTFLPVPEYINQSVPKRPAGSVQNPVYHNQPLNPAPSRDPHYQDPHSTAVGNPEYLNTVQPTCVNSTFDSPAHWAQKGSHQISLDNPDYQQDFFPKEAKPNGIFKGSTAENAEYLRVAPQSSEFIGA
# EXPERIMENT NOTES: EGFR Kinase Assay
# Format: biochemical
# CONDITION PARAMETERS: test concentration of 2 μM; compounds without an IC50; read-out: EGFR inhibition in percent
I would appreciate it if you labelled entries 1.0 when inhibition at 2 µM is 20% or higher, otherwise 0.0.

# example entries with known answers
* C[C@H](c1ccccc1)N1C(=O)Nc2c(C(=O)NC3CCN(C)CC3)sc3ncnc1c23 | 0.0
* COc1ccc(C(=O)c2sc3ncnc4c3c2NC(=O)N4c2ccc(Oc3ccccc3)cc2)cc1OC | 1.0
* O=C(c1sc2ncnc3c2c1NC(=O)N3c1ccc(Oc2ccccc2)cc1)N1CCN(CCN2CCOCC2)CC1 | 1.0
* O=C(Nc1ccc(CN2CCOCC2)cc1)c1sc2ncnc3c2c1NC(=O)N3c1ccc(Br)cc1F | 1.0

Query string: // inclusive: inhibition at 2 µM at least 20%? input: `CCOC(=O)c1sc2ncnc3c2c1NC(=O)N3c1ccc(NC(=O)c2ccccc2)cc1`
Result string: 0.0

The measurements presented in this section are drawn from patent US7579356B2.
